# % non-allergic individuals with cytokine production in ex-vivo T cell assay IL-10 listing for each entry below
- Test system: PBMC cells obtained from mite allergic patients and non-allergics
- PROCEDURE_SUMMARY: Ex vivo stimulation of PBMC: cytokine production (IFN-gamma, IL-9, IL-10, IL-17, IL-31)
- Assay type: cell-based, human
- MEASUREMENT_CONTEXT: non-allergic individuals; IL-10
MEASURED_PARAMETER: % non-allergic individuals with cytokine production in ex-vivo T cell assay IL-10 (%)

[[record]]
molecule = "Derp1: major house dust mite allergen, group 1, Dermatophagoides pteronyssinus; control (protein, UniProt P08176 99-320, looked up) Peptidase 1: TNACSINGNAPAEIDLRQMRTVTPIRMQGGCGSCWAFSGVAATESAYLAYRNQSLDLAEQELVDCASQHGCHGDTIPRGIEYIQHNGVVQESYYRYVAREQSCRRPNAQRFGISNYCQIYPPNVNKIREALAQTHSAIAVIIGIKDLDAFRHYDGRTIIQRDNGYQPNYHAVNIVGYSNAQGVDYWIVRNSWDTNWGDNGYGYFAANIDLMMIEEYPYVVIL"
numeric_result = 17

[[record]]
molecule = "A018: house dust mite protein; SEQ ID NO: 5 (Der f), 6 (Der p), 314 (Blo t) (protein) MVKAVVVLKGDPNVSGTIFFEQQDNGPVKVTGSVQGLKPGLHGFHVHEFGDNTNGCTSAGAHYNPLNKTHGAPNDEERHVGDLGNIEANDKGVANVVIEDSLISLTGEKSIVGRSLVVHADPDDLGRGGHELSKTTGNAGGRLVCGVIGVTK"
numeric_result = 67

[[record]]
molecule = "A022: house dust mite protein; SEQ ID NO: 19 (Der f), 20 (Der p), 317 (Blo t) (protein) NWQMVWQDEFNGGHLDQNHWEFETGGGGWGNNELEFYTANRSQNVRVENGHLVIDVRVESYGGRDFTSGRIHSKQAWAYGKFEARARLPSGHHLWPAIWMFPRDSKYGPWAASGEIDIMEYRGDVHDKIEGTIHYGGQWPNNIYTGSGPHHFNVDFSKDFHNFAVEWDTKEIRWYMDGNKYFSVNIDRNMWSGKGNNPYNKNGQPFDQPFRWILNVAVGGNFFGPGPYVTPDQARHWQKHTMEIDYVRVYQWR"
numeric_result = 0

[[record]]
molecule = "A023: house dust mite protein; SEQ ID NO: 23 (Der f), 24 (Der p) (protein) DPVQQRPTLRGVTVRVGPFVKENNGKFEGFIPDLVQAISEKVGFDYTLYLSPDGRYGNVISDGNVTGMIGEVYNKKADFAAADLTMTEARENYITFTEPFMINQLAALIRREDAEGLNTLEDLAKAQETFPKRKRIVLGTLRNGATNYFLSKSDDPLAKKIYEQIKADDQSVVKSISEGVERVDKQGGYAFIMESASAEHEIANNCKLTMLLDWRNLFPRKYAFALPKDSPYLEHFNNAIKQLNSEGKIAELRRKYWANNCAENKTKDDKN"
numeric_result = 0

